Assay: label from the status in PepcDB records
property_name: protein production

INSERT INTO measurements (construct_sequence, recorded_measurement) VALUES
  ('MGLKGYSVGEGGGEIVEVQGGHIIRATGRKDRHSKVFTSKGPRDRRVRLSAHTAIQFYDVQDRLGYDRPSKAVDWLIKKAKTAIDKLELGETTTTTTRQEPVNTKPESPTLVFQRENNDQTQFVAANLDPEDAMKTFFPATTTTNGGGGTNINFQNYPHQDDNNMVSRTTTPPPNLSQDLGLSLHPFQGNNNTVVVPETNNFTTTHFDTFGRISGWNHHDLTMTSSSSSEHQQQEQEERSNGGFMVNHHPHHHHHQPSMMTLLNSQQQQVFLGGQQQQQQRGTLQSSLFPHSFRSWDHHQTTSDHHHHQNQASSMFASSSQYGSHGMMMMQGLSFPNTTRLLHGEEATQPNSSSSPPNSHL', 'failed'),
  ('MSELIKHSSNFLAAISPDNDCSITATNDFEAMMSWLNGYKKKPINTSRNYAREVKRYLIWLSCQGLTLAQVKIEDVYEYFNLLERPTTEWIIPDKKTDKIYPTQLIKYGGLSNRSINYTHTVLGLFYSFLQDAGYLTKNPINLVKKASATTESEQYRHLDLPAWQTLWTWILGYENRVITEDQPAKMIKKASRYRWVFALLYHSGIRCAEAANALMSDLVRKNNTWSLKVTGKGNKMRLVTVNSLLLKELIHYRRSLLLTDYPSSHDDTPLIVSIQKNRQGSMTTRTLSSLIKEVTELVCADCQDDQITRQIETMTTHWLRHTNATHRFMAGASLETTQDELGHADPRTTRIYAKTSNEKRKLDAERLADLFDGIG', 'failed');

* * *

Test: label from the status in PepcDB records
property_name: protein production

INSERT INTO measurements (construct_sequence, recorded_measurement) VALUES
  ('MTELNFHLLPIISDRFTTTTTTSPSFSSHSSSSSSLLSFTKRRRKHQPLVSSIRMEQSRSRNRKDKVVVILGATGAGKSRLSVDLATRFPSEIINSDKIQVYEGLEITTNQITLQDRRGVPHHLLGVINPEHGELTAGEFRSAASNVVKEITSRQKVPIIAGGSNSFVHALLAQRFDPKFDPFSSGSCLISSDLRYECCFIWVDVSETVLYEYLLRRVDEMMDSGMFEELSRFYDPVKSGLETRFGIRKAIGVPEFDGYFKEYPPEKKMIKWDALRKAAYDKAVDDIKRNTWTLAKRQVKKIEMLKDAGWEIERVDATASFKAVMMKSSSEKKWRENWEEQVLEPSVKIVKRHLVQN', 'failed'),
  ('MAEEQQNSSYSIGGNILPTPEEAATFQPQVVAEGGWDKCWEDGVTPWDQGRATPLILHLLDSSALPLGRTLVPGCGGGHDVVAMASPERFVVGLDISDKALNKANETYGSSPKAEYFSFVKEDVFTWRPNELFDLIFDYVFFCAIEPEMRPAWGKSMHELLKPDGELITLMYPMTDHEGGAPYKVALSSYEDVLVPVGFKAVSVEENPDSIPTRKGKEKLARWKKIN', 'failed'),
  ('MPFEIGTMPIMSIDPKLLEVLACPQDKGPLKYLEAEQVLVNERLEIAYRIDDGIPVMLVDESIAWPPAEKLEHHHHHH', 'failed');

* * *

Test: label from the status in PepcDB records
property_name: protein production

See these solved cases before continuing.
INSERT INTO results (construct_sequence, property_name, recorded_measurement) VALUES
  ('MTRAKAPMEGVKLNSLLKVEDFATQSQFLGVNPIWNNNSTQLVEPPSIVNDEEEETEPLLPVEFTLVERNLEDGLVEEIIFSSGGEIDVYDLQGLCDKVGWPRRPLVKLAAALKNSYMVATLHSVMKSSSDSDSSEGGDGEKQQEKKLIGMARATSDHAFNATIWDVLVDPEYQGQGLGKALVEKLVRALLQRDIGNISLFADSQVVDFYQNLGFEADPEGIKGMFWYPK', 'protein production', 'failed'),
  ('MTIFVLSSLLAILLAVAIYNSEPSSYAHRSPTYGIGYVFVYIIAAFLFSFVIIYLGRKKKLRIFKVIYSIVVAYVIFYVFLILLSIFLYNVYAIFTVSIVVAIVFFYMILFRNEWYVTDLAGFFLSVGISSIWGITFGVWAAVAFLIAFEIYDYIAVYKTRHMISLARYAVDSDLPMLFVLPENSGFTMRGLSFDNRGDGNVLMIGFGDIALPSIMVVSSAIYGISHILFFTVLPLAGGLIGMAVLYFWNRDRPAPGLPYINTGTIAGFLIAFLAFRVF', 'protein production', 'failed'),
  ('SPFDTGPELESQIRNQYGVDVHVVPVLDTLNEAETLDRVAMQAARTIGPLVDSNAIIGVAWGATLSAVSRHLTRKMTHDSIVVQLNGAGNMQTTGITYASDIMRRFGSAYGARVEQFPVPAFFDHASTKTAMWNERSVQRILDLQARMSIAIFGVGSVDSDYPSHVYAGGYLDEHDLTMLAADDVVGDVATVFFRSDGSSDGITLNERSTGPSHEQLRQVRRRICVVSGASKINGLQGALAAGLATDLILDEASARRLVSFNGH', 'protein production', 'not failed'),
  ('MYADEQFKQVFQCIRCAACLNVCPAFQLVGGHVYGHIYTGGIGTILTAFLNSEKDAENPQNLCLQCGKCTEVCAGKLDIPGMILEIRNRIGDQKGLPMTPLEHHHHHH', 'protein production', 'failed'),
  ('MIRIKTPSEIEKMKKAGKAVAVALREVRKVIVPGKTAWDVETLVLEIFKKLRVKPAFKGYGGYKYATCVSVNEEVVHGLPLKEKVFKEGDIVSVDVGAVYQGLYGDAAVTYIVGETDERGKELVRVTREVLEKAIKMIKPGIRLGDVSHCIQETVESVGFNVIRDYVGHGVGRELHEDPQIPNYGTPGTGVVLRKGMTLAIEPMVSEGDWRVVVKEDGWTAVTVDGSRCAHFEHTILITENGAEILTKEG', 'protein production', 'not failed');

// moving on: another record for protein production
Please give the measured protein production for this sequence: MSLVSVIILASGNSQRMGQNKLFLKYQGKTFLEHTLTLVNQLDVLERILVVSPENQPAFPLPKNIQLILNHQWQEGQSSSIRLGTEQARGAGYLYLPSDQPLLTPKMLQLVLDKCQRNKIVVPLQKDGCPSSPVLFGNQFRQELLTLTGEKGGRMIYERFPEAVQMLRIATPGRLKDIDTPEEYQKLIQETNSLEHHHHHH
failed
